EXPERIMENTAL_TARGET: T1, biotinylated CD3 epsilon:delta heterodimer protein (Amsbio AMS.CDD-H52WO) (Homo sapiens (Human), UniProt P07766 23-126; P04234 22-105)
T1 construct: also called CD3 heterodimer
METHOD_SUMMARY: BLI (Octet), CD3 on SA sensor, Fab analyte;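 also: fabs dipped at several concentrations (0–300 nM) onto CD3-loaded streptavidin biosensors, 100 s association then 300 s dissociation in buffer, pH 7.4, sensors blocked with biocytin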
pKd: −log10 of the molar value.
pKd values, listed per item

{"columns": ["BINDER", "pKd"],
 "data": [
  ["huSP34.12.9 Fab-HF (Fab, V domains shown, also called HC12+LC9) VH: EVQLVESGGGLVQPGGSLRLSCAASGFTFSTYAMNWVRQAPGKGLEWVARIRSKYNNYATYYAASVKGRFTISRDDSKNSLYLQMNSLRTEDTAVYYCVRHGNFGHSYVSWFAYWGQGTLVTVSS VL: QAVVTQPPSLTVSPGGTVTLTCGSSTGAVTTGHYANWVQQKPGQAPRGLIGGTNKRAPGVPARFSGSLSGGKAALTISGAQPEDEAEYYCALWYSNLWVFGGGTKLTVL", 8.49],
  ["huSP34.11.7 Fab-HF (Fab, V domains shown, also called HC11+LC7) VH: EVQLVESGGGLVQPGGSLRLSCAASGFTFSTYAMNWVRQAPGKGLEWVGRIRSKYNNYATYYAASVKGRFTISRDDSKNSLYLQMNSLRTEDTAVYYCVRHGNFGHSYVSWFAYWGQGTLVTVSS VL: QAVVTQEPSLTVSPGGTVTLTCRSSTGAVTTGHYANWVQQKPGQAPRGLIGGTNKRAPGVPARFSGSLLGGKAALTISGAQPEDEAEYYCALWYSNLWVFGGGTKLTVL", 8.44],
  ["huSP34.13.9 Fab-HF (Fab, V domains shown, also called HC13+LC9) VH: EVQLVESGGGLVQPGGSLRLSCAASGFTFSTYAMNWVRQAPGKGLEWVGRIRSKYNNYATYYAASVKGRFTISRDDSKNTLYLQMNSLRTEDTAVYYCVRHGNFGHSYVSWFAYWGQGTLVTVSS VL: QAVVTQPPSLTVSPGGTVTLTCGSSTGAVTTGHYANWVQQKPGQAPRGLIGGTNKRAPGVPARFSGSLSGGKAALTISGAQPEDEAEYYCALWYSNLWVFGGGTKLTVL", 8.57],
  ["huSP34.3.10 Fab-HF (Fab, V domains shown, also called HC3+LC10) VH: EVQLVESGGGLVQPGGSLRLSCAASGFTFNTYAMNWVRQAPGKGLEWVGRIRSKYNNYATYYADSVKGRFTISRDDSKNSLYLQMNSLRTEDTAVYYCVRHGNFGHSYVSWFAYWGQGTLVTVSS VL: QAVVTQPPSLTVSPGGTVTLTCGSSTGAVTTGHYANWVQQKPGQAPRGLIGGTNKRAPGVPARFSGSLSGGKAALTISGAQPEDEAEYYCALWYSNRWVFGGGTKLTVL", 8.70],
  ["huSP34.11.9 Fab-HF (Fab, V domains shown, also called HC11+LC9) VH: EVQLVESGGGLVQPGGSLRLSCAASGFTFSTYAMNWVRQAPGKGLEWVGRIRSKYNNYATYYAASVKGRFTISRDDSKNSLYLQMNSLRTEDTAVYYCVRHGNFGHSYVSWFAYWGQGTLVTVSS VL: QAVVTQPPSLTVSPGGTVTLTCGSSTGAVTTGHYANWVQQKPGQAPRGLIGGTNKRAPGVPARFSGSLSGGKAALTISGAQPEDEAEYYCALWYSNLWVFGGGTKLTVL", 8.47],
  ["huSP34.3.7 Fab-HF (Fab, V domains shown, also called HC3+LC7) VH: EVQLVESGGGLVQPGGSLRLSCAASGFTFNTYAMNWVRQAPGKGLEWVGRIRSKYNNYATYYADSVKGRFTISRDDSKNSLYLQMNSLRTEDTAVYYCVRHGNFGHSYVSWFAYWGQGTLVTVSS VL: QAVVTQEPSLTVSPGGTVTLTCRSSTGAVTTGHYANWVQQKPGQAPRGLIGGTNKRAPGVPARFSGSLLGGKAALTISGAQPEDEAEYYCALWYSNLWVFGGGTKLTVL", 8.25]
]}
